FYI, the data here is from patent US20220389097A1.

targetDesc: T1, cynomolgus TREM2-Fc (cynomolgus monkey, UniProt A0A2K5UY34 49-204)
T1 construct: also called cyno TREM2; not shown: Fc part
T1 sequence: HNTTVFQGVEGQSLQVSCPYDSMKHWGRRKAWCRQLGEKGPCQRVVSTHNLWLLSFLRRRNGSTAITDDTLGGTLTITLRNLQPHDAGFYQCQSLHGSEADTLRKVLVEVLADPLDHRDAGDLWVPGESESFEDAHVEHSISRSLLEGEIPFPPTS
assayComment: SPR (Biacore T200), 37 C; TREM2-Fc on anti-human IgG1 Fc chip, Fab in solution
recordedMetric: Kd (pM)
Reply numerically in pM, unit not repeated.

Enquiry: For Para.09 Fab with the 3.50G1 light chain (Fab, V domains shown, also called Para.09 (3.50G1)) VH: EVQLVETGGSLVQPGKSLRLTCATSGFPFSNVWLHWVRQSPEKHPEWVAHIKAKSDNYATYYAESVKGRFTISRDDSKSSVFLQMNSLKEEDTAIYYCTDILEYWGQGTLVTVSS VL: DTVLTQAPLSVSVTPGESASISCRSNKSLLGIRDITSLYWFLQKPGKSPQLLIYRMSNLASGVPDRFSGSGSETDFTLKISEVETEDVGVYYCAQFLRYPYTFGPGTKLELQ , what is its reported Kd?
Return: 2
